system: Quadruplex DNA; test: Binding affinity to synthetic c-Kit1 G-quadruplex DNA assessed as residual binding at 60 uM after 4 mins by UV-Vis spectrophotometric analysis relative to control; assay type: nucleic-acid assay
reported_metric: Activity (%)

| molecule | reported_metric | result_units | reported |
| --- | --- | --- | --- |
| O=C1c2ccccc2C(=O)c2c1oc1c3c(ccc21)OCN(CC1CCCO1)C3 (stereo not given) | Activity | % | 88 |
| O=C1c2ccccc2C(=O)c2c1oc1c3c(ccc21)OCN(Cc1ccccc1)C3 | Activity | % | 76 |
| O=C1c2ccccc2C(=O)c2c1oc1c3c(ccc21)OCN(CCCn1ccnc1)C3 | Activity | % | 85 |
| O=C1c2ccccc2C(=O)c2c1oc1c3c(ccc21)OCN(CCCN1CCOCC1)C3 | Activity | % | 77 |
| CC(c1ccccc1)N1COc2ccc3c4c(oc3c2C1)C(=O)c1ccccc1C4=O (stereo not given) | Activity | % | 78 |
